target: Tyrosine-protein kinase receptor UFO (Homo sapiens, UniProt P30530)
Sequence (P30530 whole entry): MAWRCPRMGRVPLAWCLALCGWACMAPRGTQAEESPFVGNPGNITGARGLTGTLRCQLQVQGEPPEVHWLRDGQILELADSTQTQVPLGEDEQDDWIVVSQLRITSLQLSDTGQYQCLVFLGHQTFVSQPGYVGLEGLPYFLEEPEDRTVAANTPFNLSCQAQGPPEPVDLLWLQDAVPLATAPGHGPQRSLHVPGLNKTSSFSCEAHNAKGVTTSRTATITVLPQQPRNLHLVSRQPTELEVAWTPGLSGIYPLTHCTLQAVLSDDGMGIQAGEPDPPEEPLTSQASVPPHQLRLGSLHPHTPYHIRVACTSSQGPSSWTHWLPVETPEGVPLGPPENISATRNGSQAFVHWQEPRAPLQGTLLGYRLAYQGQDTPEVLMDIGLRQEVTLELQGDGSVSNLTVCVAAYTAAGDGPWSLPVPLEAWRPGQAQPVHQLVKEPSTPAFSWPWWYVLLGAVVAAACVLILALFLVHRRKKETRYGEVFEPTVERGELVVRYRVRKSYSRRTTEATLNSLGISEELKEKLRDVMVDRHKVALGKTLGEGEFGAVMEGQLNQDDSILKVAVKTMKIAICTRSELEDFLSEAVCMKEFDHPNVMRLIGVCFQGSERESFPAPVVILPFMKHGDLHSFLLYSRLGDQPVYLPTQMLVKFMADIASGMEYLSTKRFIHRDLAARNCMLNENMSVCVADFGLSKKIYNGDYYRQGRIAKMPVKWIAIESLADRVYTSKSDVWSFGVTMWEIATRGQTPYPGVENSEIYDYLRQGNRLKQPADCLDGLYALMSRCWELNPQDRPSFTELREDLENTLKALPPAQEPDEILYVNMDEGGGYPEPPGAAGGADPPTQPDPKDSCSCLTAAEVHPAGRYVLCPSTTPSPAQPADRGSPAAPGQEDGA
observationType: IC50

The reported IC50 value, Tyrosine-protein kinase receptor UFO (Homo sapiens, UniProt P30530), for Nc1nc(NCCNC(=O)CCCNc2cccc3c2CN(C2CCC(=O)NC2=O)C3=O)nn1-c1cc2c(nn1)-c1ccccc1CCC2 (stereo unspecified) reads > 60 µM

----------
experiment: Clearance in male Sprague-Dawley rat at 2 mg/kg, iv administered as single dose measured by LC/MS/MS analysis; assay type: ADME, organism-based; details: male, Sprague-Dawley, in vivo
observationType: clearance (mL/min/kg)
Give your result in mL/min/kg as a bare value.

Value of measured clearance for the entry Nc1nc(Nc2ccc(CNC(=O)CCCCCCCNc3cccc4c3CN(C3CCC(=O)NC3=O)C4=O)cc2)nn1-c1ccc(-c2ccccc2)nn1 (stereo unspecified) : 11.3

----------
test: AUC (0 to t) in male Sprague-Dawley rat at 20 mg/kg, po administered as single dose measured by LC/MS/MS analysis; format: ADME, organism-based; set-up: dose 20 mg/kg, route po; settings: in vivo
observationType: AUC(0-t) (ng·h/mL)
Kindly answer with a numeric value in ng·h/mL, unit omitted.

1) Nc1nc(Nc2ccc(CNC(=O)CCCCCNc3cccc4c3CN(C3CCC(=O)NC3=O)C4=O)cc2)nn1-c1ccc(-c2ccccc2)nn1 (configuration not stated); 3590

Please turn your attention to the following entry.
So, Nc1nc(Nc2ccc(CNC(=O)CCCCCCCNc3cccc4c3CN(C3CCC(=O)NC3=O)C4=O)cc2)nn1-c1ccc(-c2ccccc2)nn1 (configuration not stated) ? Its AUC(0-t) was 865

----------
test: Half-life in male Sprague-Dawley rat at 20 mg/kg, po administered as single dose measured by LC/MS/MS analysis; format: ADME, organism-based; conditions: in vivo
Listed here are compounds together with their documented half-life.
Give just the numeric value; h need not be written.

1) Nc1nc(Nc2ccc(CNC(=O)CCCCCNc3cccc4c3CN(C3CCC(=O)NC3=O)C4=O)cc2)nn1-c1ccc(-c2ccccc2)nn1 (configuration not stated); 4.43

Lab note: measured half-life of Nc1nc(Nc2ccc(CNC(=O)CCCCCCCNc3cccc4c3CN(C3CCC(=O)NC3=O)C4=O)cc2)nn1-c1ccc(-c2ccccc2)nn1 (configuration not stated) was 2.37
